# System: EKVX NSCLC
# experimentNotes: NCI-60 one-dose screen, 48 h
# conditionsUsed: 10 µM unless noted
About 83,000 compounds went through this panel and 20% of them were active in at least one assay; those are over-represented in the sample as a whole. Calls of active or inactive are those of the source. How the source made its calls: active means growth percent below 10; inactive means the rest.
Your reply should match one of these outcome classes. 1 (yes) (active), 0 (no) (inactive)

Which outcome was assigned to `COc1cc2nc3cc([N+](=O)[O-])ccc3c(NCCCNCCO)c2cc1OC` in this test?
1 (yes)

Please state the recorded outcome for this compound: `O=C(Nc1ncc(Cc2ccc(Cl)cc2)s1)c1ccc2c(c1)OCCO2`
0 (no)

What was the test verdict on `O=C(Nc1cccc2c1C(=O)c1cccc(NC(=O)c3ccc(C(=O)Nc4cccc5c4C(=O)c4cccc(NC(=O)c6ccccc6)c4C5=O)cc3)c1C2=O)c1ccccc1` ?
0 (no)

Would you mind telling me which call this test gave `C#CCOc1cccc(-c2ncnc3cc(NC(=O)CCl)ccc23)c1` ?
0 (no)

Give the logged outcome of this assay for the following compound: `c1ccc(Cn2cc3c(c2)-c2nc(Nc4ccccc4)ncc2CC3)cc1`
0 (no)

Dear colleague, could you share the recorded outcome for Cc1nc2sc(C(=O)Nc3ccccc3)c(N)c2cc1C(O)c1ccccc1 (centres undefined) when you have a moment?
0 (no)

Could you please tell me the result logged for `CCOC(=O)c1c(NC(=S)Nc2ccc([N+](=O)[O-])cc2)sc2c1CCCCC2` in this assay?
0 (no)

Recorded test outcome, item `Cc1nn(-c2ccccc2)c(Oc2ccccc2)c1/C=N/NC(=O)Cn1c(=O)sc2ccccc21`
0 (no)

Short answer needed: outcome of this test for `O=c1oc2ccccc2cc1-c1nn(-c2ccccc2)cc1/C=N/Nc1nc(-c2ccccc2)c(N=Nc2ccccc2)s1` ?
0 (no)
